These data points were gathered from paper PMC4552634.

System: P. falciparum stage V gametocytes
Design: BacTiter-Glo ATP luminescence viability of purified stage V gametocytes in 384-well plates, per cent inhibition versus DMSO
Conditions: 48 h, 5 µM; inhibitor
Out of some 13,000 compounds screened, about 3,200 (25%) showed an effect of 50% or more. This is one part of the list.
The following compounds are listed with their measured % Inhibition values.
measured-endpoint: % Inhibition (%)

1. COc1ccc(CNC(=O)NC2CCN(c3ccnc(Nc4cc(OC)c(OC)c(OC)c4)n3)C2)cc1 (stereo not drawn) [TCMDC-133619] ... -40.46
2. Cc1cc(OCC2CCCO2)c2cc(NC(=O)C(=O)Nc3ccc4nc(C)cc(OCC5CCCO5)c4c3)ccc2n1 (stereo not drawn) [TCMDC-139970] ... -0.178
3. CCCC(C)Nc1nc(C)cc(N[C@@H](Cc2ccccc2)C(=O)Nc2ccccc2)n1 (stereo partly drawn) [TCMDC-134767] ... -30.62
4. O=C(/C=C/c1ccc(Cl)c(Cl)c1)NCCCCCN1CCC(NC(=O)Nc2ccccc2F)CC1 [TCMDC-139386] ... -2.666
5. O=C(N[C@@H](Cc1ccccc1)C(=O)NC1CCCCC1)c1ccc(O)c(-c2cccc(C(F)(F)F)c2)c1 [TCMDC-140809] ... 50.49
6. Cc1ccc(NC(=O)c2nc(N3CCN(c4ccncc4)CC3)ccc2Cl)cc1F [TCMDC-135103] ... 90.08
7. CCN(c1ccccc1)S(=O)(=O)c1ccc(OC)c(NC(=O)c2cccc(C(F)(F)F)c2)c1 [TCMDC-125343] ... 14.96
8. COc1ccc(-c2cnc3ccc(NC4CCC(O)CC4)nn23)cn1 (stereo not drawn) [TCMDC-136694] ... 36.86
9. Cc1ccc(NC(=O)c2ccc(N3CCN(c4ccncc4)CC3)cc2)cc1F [TCMDC-135126] ... 6.025
10. N#CCCn1nc(-c2ccc(Cl)cc2)c2c(c1=O)CCCC2 [TCMDC-123668] ... -3.378
11. O=C(Nc1cccc(Cl)c1N1CCOCC1)C(Cl)(Cl)Cl [TCMDC-124993] ... 8.6
12. O=C(N[C@@H](CC1CCCCC1)C(=O)NC1CCCCC1)c1ccc(O)c(-c2cccc(C(F)(F)F)c2)c1 [TCMDC-140810] ... 6.892
13. CC(C)(C)c1cc(C(=O)N2CCC(c3ccccn3)CC2)n(Cc2ccccc2)n1 [TCMDC-133770] ... -53.32
14. Cc1ccccc1Oc1nc2ccccc2nc1SCC(=O)NC(C)C [TCMDC-124733] ... -10.37
15. Cc1cc2c(cc1Cl)N(C(=O)Nc1cc(F)cc(-c3cncnc3)c1)CC2 [TCMDC-139052] ... -4.717
16. Cc1cccc2[nH]c(=O)c([N+](=O)[O-])c(O)c12 [TCMDC-131384] ... -28.29
17. O=C(N[C@@H](Cc1ccccc1)C(=O)NC1CCCCCC1)c1ccc(O)c(-c2cccc(C(F)(F)F)c2)c1 [TCMDC-140813] ... 18.86
18. O=C(NCC1CCN(Cc2cccc(C(F)(F)F)c2)C1)c1cc(-c2cccc(Cl)c2)cs1 (stereo not drawn) [TCMDC-134485] ... 50.21

====

The following compounds are listed with their measured % Inhibition values.
System: P. falciparum stage V gametocytes
Parameters: BacTiter-Glo ATP luminescence viability of purified stage V gametocytes in 384-well plates, per cent inhibition versus DMSO
Details: 48 h, 5 µM; inhibitor
Screen size: about 13,000 compounds; about 3,200 (25%) showed an effect of 50% or more. The list shows a part of the results.
measured-endpoint: % Inhibition

1. Cc1cc(OCc2ccccc2)c(OCc2ccccc2)cc1C(O)CN(C)Cc1ccccc1 (centres unmarked) ... 18.13%
2. Cc1ccoc1C(=O)Nc1cccc(-c2cccc(-c3nc4c(C)cccc4[nH]3)c2)c1 ... 81.69%
3. Cc1ccc(Nc2nc(-c3ccccn3)cs2)nc1 ... 98.08%
4. O=C(Nc1cccc(-c2cccc(-c3nc4ccccc4[nH]3)c2)c1)c1csnn1 ... 1.573%
5. c1ccc(Oc2ccc(Nc3nc(NCCc4cnc[nH]4)nc(NC4CCCC4)n3)cc2)cc1 ... 20.05%
6. COc1cc2nc(N(C)Cc3cc4c(Cl)cccc4s3)nc(N)c2cc1OC.Cl ... 62.52%
7. CC(Cc1ccc(OCCOc2ccccc2)cc1)NCC(O)c1cccc(Cl)c1 (centres unmarked) ... 12.28%
8. Cc1cc(N2CCCC2)nc(Nc2ccc(NC(=O)COc3ccccc3)cc2)n1 ... -41.99%
